Source listed as the supplement of paper PMC10126150.

Tested on: ATP;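 further: ATP exposure 15 min at 22 °C before imaging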
Assay: switch fluorescence ratio, 500 uM ATP over buffer (Cy3 cluster intensity, sum of 5 cycles each) (fold (ratio)); higher = stronger signal-on switching upon ATP binding; sequences stand for … in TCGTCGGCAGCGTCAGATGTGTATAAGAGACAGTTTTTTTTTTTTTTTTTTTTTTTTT…TC
Settings: aptamer strand: ATP DNA aptamer (quencher-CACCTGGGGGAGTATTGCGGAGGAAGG + anchor), 100 nM annealed; ATP concentration: 500 uM
Measurement Name: switch fluorescence ratio
# print the numeric value only

Which switch fluorescence ratio reading was recorded for the sequence TTTAGTCACT ?
1.03

Which switch fluorescence ratio reading was recorded for the sequence AGTGGACGGG ?
0.994

Which switch fluorescence ratio reading was recorded for the sequence GGGACCAGGG ?
0.989

Which switch fluorescence ratio reading was recorded for the sequence GGGATCCTTG ?
1

Which switch fluorescence ratio reading was recorded for the sequence TTTTAGTGTC ?
0.998

Which switch fluorescence ratio reading was recorded for the sequence CGGAGTGAGG ?
1.02

Which switch fluorescence ratio reading was recorded for the sequence GTCGTGTGGG ?
0.996

Which switch fluorescence ratio reading was recorded for the sequence TCGGACACAT ?
1.07

Which switch fluorescence ratio reading was recorded for the sequence GAAGGGGGTT ?
0.973

Which switch fluorescence ratio reading was recorded for the sequence GGGACTTGGG ?
0.998

Which switch fluorescence ratio reading was recorded for the sequence TAGGGCATCA ?
0.987

Which switch fluorescence ratio reading was recorded for the sequence TGACTATGCT ?
0.98

Which switch fluorescence ratio reading was recorded for the sequence TATTCATTTG ?
1.03

Which switch fluorescence ratio reading was recorded for the sequence AAAGTTTTAT ?
0.984

Which switch fluorescence ratio reading was recorded for the sequence TTGTGCTTGT ?
0.983
